System: SK-MEL-5 (Melanoma)
Test Description: NCI-60 screen (SRB, 48 h)
Condition Parameters: Homo sapiens, SK-MEL-5, read-out: LC50
# CC50 per entry
Quote the value and follow it with the unit of measurement.

Here are 2 molecules together with their reported answers.
>  <Molecule>
C=C(C)C1CCC2(CO)CCC3(C)C(CCC4C5(C)CCCNC(C)(C)C5CCC43C)C12 (stereo not drawn)

>  <Measurement Kind>
CC50

>  <Value Reported>
5.28 µM

$$$$
>  <Molecule>
C=C(C)[C@@H]1CC[C@]2(C(=O)N[C@H](CO)Cc3ccccc3)CC[C@]3(C)[C@H](CC[C@@H]4[C@@]5(C)CCCNC(C)(C)[C@@H]5CC[C@]43C)[C@@H]12

>  <Measurement Kind>
CC50

>  <Value Reported>
5.64 µM

$$$$

Input: Can you share its CC50? I mean this molecule: `C[C@H]1[C@H](C)CC[C@]2(CO)CC[C@]3(C)C(=CC[C@@H]4[C@@]5(C)CCCNC(C)(C)[C@@H]5CC[C@]43C)[C@H]12`
Output: 5.62 µM

* * *

Tested on: panel of approximately 60 cancer cell lines
Test Description: NCI-60 screen (SRB, 48 h), full panel
Condition Parameters: 1 dose 10 µM
Binary label based on number of cancer cell lines the compound was active against with cut-off 40 cell lines: below gives Y, not below gives N.

>  <Molecule>
CC1(C)CC[C@]2(CO)CC[C@]3(C)C(=CC[C@@H]4[C@@]5(C)CCCNC(C)(C)[C@@H]5CC[C@]43C)[C@@H]2C1 [Compound 3, azepanoerythrodiol]

>  <Group>
Y

$$$$
>  <Molecule>
CC1(C)CC[C@]2(C(=O)NC(CO)Cc3ccccc3)CC[C@]3(C)C(=CC[C@@H]4[C@@]5(C)CCCNC(C)(C)[C@@H]5CC[C@]43C)[C@@H]2C1 (stereo partly drawn) [Compound 13]

>  <Group>
Y

$$$$
>  <Molecule>
CC(C)=C1CCC=C2CC[C@]3(C)[C@H](CC[C@@H]4[C@@]5(C)CCCNC(C)(C)[C@@H]5CC[C@]43C)[C@H]21 [Compound 9]

>  <Group>
Y

$$$$
>  <Molecule>
C[C@H]1[C@H](C)CC[C@]2(CO)CC[C@]3(C)C(=CC[C@@H]4[C@@]5(C)CCCNC(C)(C)[C@@H]5CC[C@]43C)[C@H]12 [Compound 4, azepanouvaol]

>  <Group>
N

$$$$
>  <Molecule>
C=C(C)[C@@H]1CC[C@]2(C)[C@H](C=CC3=C4C[C@@](C)(CO)CC[C@]4(C)CC[C@]32C)[C@@]1(C)CCCN [Compound 20]

>  <Group>
N

$$$$

Input: Strictly below 40 cell lines in number of cancer cell lines the compound was active against? Cc1ccc(S(=O)(=O)OC[C@]23CCC(C)(C)C[C@H]2C2=CC[C@@H]4[C@@]5(C)CCCNC(C)(C)[C@@H]5CC[C@@]4(C)[C@]2(C)CC3)cc1 [Compound 15]
Output: Y

Input: Consider next the molecule CC1(C)CC[C@]23CC[C@]4(C)[C@H](CC[C@@H]5[C@@]6(C)CCCNC(C)(C)[C@@H]6CC[C@]54C)[C@H]2[C@H]1OC3 [Compound 7, Azepanoallobetulin] in the same way.
Output: N

Input: # iterate: C=C(C)[C@@H]1CC[C@]2(C)[C@H](CC=C3[C@@H]4[C@@H](C)[C@H](C)CC[C@]4(CO)CC[C@]32C)[C@@]1(C)CCCN [Compound 19]
Output: N

Input: Now try CC1(C)NCCC[C@]2(C)[C@H]3CC=C4[C@@H]5C[C@@](C)(CO)CC[C@]5(C)CC[C@@]4(C)[C@]3(C)CC[C@@H]12 [Compound 5, azepano-glycyrretol] .
Output: Y

* * *

System: SF-295 (CNS cancer)
Test Description: NCI-60 screen (SRB, 48 h)
Condition Parameters: Homo sapiens, SF-295, 48 h, read-out: TGI
Entries and their IC (TGI) values follow.
Numbers only; they are read as µM.

Below, each entry is followed by its recorded IC (TGI) result.
>  <Smiles Record>
Cc1ccc(S(=O)(=O)OC[C@@]2(C)CC[C@]3(C)CC[C@]4(C)C(=C3C2)C=C[C@@H]2[C@@]3(C)CCCNC(C)(C)[C@@H]3CC[C@]24C)cc1

>  <IC (TGI), µM>
3.29

$$$$
>  <Smiles Record>
C[C@H]1[C@H](C)CC[C@]2(C(=O)Nc3ccc4ncccc4c3)CC[C@]3(C)C(=CC[C@@H]4[C@@]5(C)CCCNC(C)(C)[C@@H]5CC[C@]43C)[C@H]12

>  <IC (TGI), µM>
3.17

$$$$

API: the following record is the query input.
Input: Sample `Cc1ccc(S(=O)(=O)OC[C@]23CCC(C)(C)C[C@H]2C2=CC[C@@H]4[C@@]5(C)CCCNC(C)(C)[C@@H]5CC[C@@]4(C)[C@]2(C)CC3)cc1` — what was its IC (TGI)?
Output: 3.3

* * *

This section presents compounds with their documented GI50 values.
System: Prostate cancer subpanel
Test Description: NCI-60 screen, subpanel
Condition Parameters: Homo sapiens, read-out: GI50 MG_MID
Report the figure in µM without appending any unit label.

>  <Compound>
CC(C)=C1CCC=C2CC[C@]3(C)[C@H](CC[C@@H]4[C@@]5(C)CCCNC(C)(C)[C@@H]5CC[C@]43C)[C@H]21

>  <Unit Name>
µM

>  <GI50>
1.78

$$$$

Input: So what does the record say about GI50 for `C[C@H]1[C@H](C)CC[C@]2(CO)CC[C@]3(C)C(=CC[C@@H]4[C@@]5(C)CCCNC(C)(C)[C@@H]5CC[C@]43C)[C@H]12` ?
Output: 1.64

Input: Then `C=C(C)[C@@H]1CCC=C2CC[C@]3(C)[C@H](CC[C@@H]4[C@@]5(C)CCCNC(C)(C)[C@@H]5CC[C@]43C)[C@H]21` ?
Output: 1.71

Input: Further, for `C=C(C)[C@@H]1CC[C@]2(C)[C@H](CC=C3[C@@H]4[C@@H](C)[C@H](C)CC[C@]4(CO)CC[C@]32C)[C@@]1(C)CCCN` ?
Output: 1.43

Input: // next record `C[C@H]1[C@H](C)CC[C@]2(C(=O)Nc3ccc4ncccc4c3)CC[C@]3(C)C(=CC[C@@H]4[C@@]5(C)CCCNC(C)(C)[C@@H]5CC[C@]43C)[C@H]12`
Output: 1.76

Input: Another compound: `C=C(C)[C@@H]1CC[C@]2(C)[C@H](C=CC3=C4C[C@@](C)(CO)CC[C@]4(C)CC[C@]32C)[C@@]1(C)CCCN`
Output: 1.71

Input: How about `CC1(C)NCCC[C@]2(C)[C@H]3C=CC4=C5C[C@@](C)(CO)CC[C@]5(C)CC[C@@]4(C)[C@]3(C)CC[C@@H]12` ?
Output: 2.65

Input: Also C=C(C)C1CCC2(CO)CCC3(C)C(CCC4C5(C)CCCNC(C)(C)C5CCC43C)C12 (centres unmarked) , if possible.
Output: 2.98

* * *

Tested on: Prostate cancer subpanel
Test Description: NCI-60 screen, subpanel
Condition Parameters: Homo sapiens, read-out: LC50 MG_MID
Measurement Kind: CC50 (µM)
Number only, in µM; omit the unit.

>  <Compound>
C=C(C)C1CCC2(CO)CCC3(C)C(CCC4C5(C)CCCNC(C)(C)C5CCC43C)C12 (stereo not shown)

>  <Measurement Kind>
CC50

>  <Unit Name>
µM

>  <Value Reported>
5.66

$$$$
>  <Compound>
C=C(C)[C@@H]1CCC=C2CC[C@]3(C)[C@H](CC[C@@H]4[C@@]5(C)CCCNC(C)(C)[C@@H]5CC[C@]43C)[C@H]21

>  <Measurement Kind>
CC50

>  <Unit Name>
µM

>  <Value Reported>
5.97

$$$$
>  <Compound>
CC(C)=C1CCC=C2CC[C@]3(C)[C@H](CC[C@@H]4[C@@]5(C)CCCNC(C)(C)[C@@H]5CC[C@]43C)[C@H]21

>  <Measurement Kind>
CC50

>  <Unit Name>
µM

>  <Value Reported>
6.08

$$$$

Input: Look at this compound and give its reported CC50. `Cc1ccc(S(=O)(=O)OC[C@@]2(C)CC[C@]3(C)CC[C@]4(C)C(=C3C2)C=C[C@@H]2[C@@]3(C)CCCNC(C)(C)[C@@H]3CC[C@]24C)cc1`
Output: 6.1

Input: Consider next the compound `Cc1ccc(S(=O)(=O)OC[C@]23CCC(C)(C)C[C@H]2C2=CC[C@@H]4[C@@]5(C)CCCNC(C)(C)[C@@H]5CC[C@@]4(C)[C@]2(C)CC3)cc1` in the same way.
Output: 6.35

Input: Repeat for the following compound: `CC1(C)CC[C@]23CC[C@]4(C)[C@H](CC[C@@H]5[C@@]6(C)CCCNC(C)(C)[C@@H]6CC[C@]54C)[C@H]2[C@H]1OC3`
Output: 6.12

Input: Again, but for `CC1(C)CC[C@]2(CO)CC[C@]3(C)C(=CC[C@@H]4[C@@]5(C)CCCNC(C)(C)[C@@H]5CC[C@]43C)[C@@H]2C1`
Output: 8.54

Input: Could you do the same for `CC1(C)NCCC[C@]2(C)[C@H]3C=CC4=C5C[C@@](C)(CO)CC[C@]5(C)CC[C@@]4(C)[C@]3(C)CC[C@@H]12` , please?
Output: 26.2

Input: Again, but for `C=C(C)[C@@H]1CC[C@]2(C)[C@H](CC=C3[C@@H]4[C@@H](C)[C@H](C)CC[C@]4(CO)CC[C@]32C)[C@@]1(C)CCCN`
Output: 18.7

Input: Now try `C[C@H]1[C@H](C)CC[C@]2(CO)CC[C@]3(C)C(=CC[C@@H]4[C@@]5(C)CCCNC(C)(C)[C@@H]5CC[C@]43C)[C@H]12` .
Output: 5.7
